Molecular target: RAGE (sRAGE) binding to Carboxymethyl Lysine (CML) (Homo sapiens, UniProt Q15109)
Construct: extracellular domain can be isolated by proteolysis of RAGE to generate soluble RAGE (sRAGE) comprised of the V and C domains
Sequence (Q15109 23-342 limits assumed): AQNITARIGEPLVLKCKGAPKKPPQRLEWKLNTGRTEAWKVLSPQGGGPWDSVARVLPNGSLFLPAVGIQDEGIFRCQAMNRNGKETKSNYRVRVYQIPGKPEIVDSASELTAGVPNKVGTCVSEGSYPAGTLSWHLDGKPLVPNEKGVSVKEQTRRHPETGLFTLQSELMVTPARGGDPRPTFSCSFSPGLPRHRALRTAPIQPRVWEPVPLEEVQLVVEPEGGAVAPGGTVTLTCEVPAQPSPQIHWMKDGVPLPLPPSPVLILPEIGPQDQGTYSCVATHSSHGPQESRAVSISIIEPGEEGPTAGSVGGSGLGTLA
Experiment: ELISA assay: inhibition of sRAGE binding to plate-bound CML
Conditions: ligand CML coated on plate, concentration at which 50% signal has been inhibited
Where a name gives a salt, the structure may show the parent alone.
Listed below: IC50 values for each entry.

CCCCOc1cc(OCCCN(CC)CC)ccc1NC(=O)C(CC1CCN(C(=O)OC(C)(C)C)CC1)NC(=O)OCC1c2ccccc2-c2ccccc21 (stereo not shown)	0.5 to 1 µM
CCCCOc1cc(OCCCN(CC)CC)ccc1NC(=O)C(CC1CCNCC1)NC(=O)OCC1c2ccccc2-c2ccccc21 (stereo not shown)	1 to 5 µM
CCCCOc1cc(C(=O)OCCN(CC)CC)ccc1NC(=O)[C@@H]1Cc2ccccc2CN1 [Example 6, Dihydrochloride]	5 to 10 µM

QUERY: Item under review: CCN(CC)CCCOc1ccc(NC(=O)CC(NC(=O)OCC2c3ccccc3-c3ccccc32)c2ccc(OC(C)(C)C)cc2)c(OCCCN(CC)CC)c1 (stereo not shown) . Reported IC50?
RESULT: 0.5 to 1 µM

QUERY: Quick one: IC50 for CCCCOc1cc(OCCCN(CC)CC)ccc1NC(=O)C(CC1CCN(C(=O)c2ccccc2)CC1)NC(=O)OCC1c2ccccc2-c2ccccc21 (stereo not shown) ?
RESULT: 1 to 5 µM

QUERY: Which value of IC50 has been reported for CCN(CC)CCCOc1ccc(N(CC2CCCCC2)C(=O)[C@H](N)Cc2ccc(OCc3ccccc3)cc2)cc1 in the records?
RESULT: 1 to 5 µM

QUERY: // query IC50 value for entry CCN(CC)CCCOc1ccc(N(Cc2ccccc2)C(=O)[C@@H](Cc2ccc(OCc3ccccc3)cc2)NC(=O)OC(C)(C)C)cc1
RESULT: 5 to 10 µM

###

Reported IC50 by item:
Biological target: RAGE (sRAGE) binding to β-amyloid (Homo sapiens)
Construct: extracellular domain can be isolated by proteolysis of RAGE to generate soluble RAGE (sRAGE) comprised of the V and C domains
Test: ELISA assay: inhibition of sRAGE binding to plate-bound β-amyloid
Conditions: ligand β-amyloid coated on plate, concentration at which 50% signal has been inhibited

# example entries with known answers
CCN(CC)CCCOc1ccc(N(CC2CCCCC2)C(=O)[C@H](N)Cc2ccc(OCc3ccccc3)cc2)cc1	1 to 5 µM
CCN(CC)CCCOc1ccc(NC(=O)CC(N)c2ccc(OC(C)(C)C)cc2)c(OCCCN(CC)CC)c1 (stereo not shown)	1 to 5 µM
CCN(CC)CCCOc1ccc(NC(=O)CC(NC(=O)OCC2c3ccccc3-c3ccccc32)c2ccc(OC(C)(C)C)cc2)c(OCCCN(CC)CC)c1 (stereo not shown)	0.5 to 1 µM

QUERY: Any idea what IC50 was measured for CCCCOc1cc(C(=O)OCCN(CC)CC)ccc1NC(=O)[C@@H](Cc1ccc(OCc2ccccc2)cc1)n1ccnc1 ?
RESULT: 1 to 5 µM

QUERY: I would be grateful if you could share the reported IC50 for CCCCOc1cc(OCCCN(CC)CC)ccc1NC(=O)C(CC1CCN(Cc2ccccc2)CC1)NC(=O)OCC1c2ccccc2-c2ccccc21 (stereo not shown) .
RESULT: 0.5 to 1 µM

QUERY: Quick one: IC50 for CCCCOc1cc(OCCCN(CC)CC)ccc1NC(=O)C(CC1CCCNC1)NC(=O)OCC1c2ccccc2-c2ccccc21 (stereo not shown) ?
RESULT: 0.5 to 1 µM

QUERY: What value of measured IC50 is listed for CCN(CC)CCCOc1ccc(N(CC2CCCC2)C(=O)[C@H](N)Cc2ccc(OCc3ccccc3)cc2)cc1 ?
RESULT: 10 to 20 µM

QUERY: What does the record list as IC50 for CCCCOc1cc(OCCCN(CC)CC)ccc1NC(=O)C(CC1CCN(C(=O)c2ccccc2)CC1)NC(=O)OCC1c2ccccc2-c2ccccc21 (stereo not shown) ?
RESULT: 1 to 5 µM

QUERY: Which IC50 is reported for this compound? CCCCN(C(=O)[C@@H](Cc1ccc(OCc2ccccc2)cc1)NC(=O)OC(C)(C)C)c1ccc(OCCCN(CC)CC)cc1
RESULT: 1 to 5 µM

QUERY: IC50 for CCCCOc1cc(OCCCN(CC)CC)ccc1NC(=O)C(CC1CCNCC1)NC(=O)OCC1c2ccccc2-c2ccccc21 (stereo not shown) ?
RESULT: 0.5 to 1 µM

QUERY: Name the reported IC50 value associated with the compound CCCCOc1cc(OCCCN(CC)CC)ccc1NC(=O)C(CC1CCN(C(=O)OC(C)(C)C)CC1)NC(=O)OCC1c2ccccc2-c2ccccc21 (stereo not shown)
RESULT: 0.5 to 1 µM

QUERY: # lookup: IC50 of CCCCOc1cc(OCCCN(CC)CC)ccc1NC(=O)C(CC1CCN(C(=O)OCc2ccccc2)CC1)NC(=O)OCC1c2ccccc2-c2ccccc21 (stereo not shown)
RESULT: 1 to 5 µM

QUERY: Quick one: IC50 of CCCCOc1cc(OCCCN(CC)CC)ccc1NC(=O)C(CC1CCCN(C(=O)OC(C)(C)C)C1)NC(=O)OCC1c2ccccc2-c2ccccc21 (stereo not shown) ?
RESULT: 1 to 5 µM

Where do these numbers come from? They come from patent US7423177B2.
